# run_description: gradient 5% acetonitrile 3 min, to 50% in 2 min, to 85% in 15 min, held 3 min, 100 µL/min
# condition_info: column: Zorbax Extend-C18 2.1 x 50 mm; eluents: water / acetonitrile, 0.1% formic acid
measurement_name: RP-LC retention time (s)
Enter your answer as a number in s; do not include the unit.

- CCC(c1cccs1)N1C(=O)[C@H]2CN(S(=O)(=O)Cc3ccccc3F)C[C@H]2C1=O (stereo not given in full): 1000
- O=c1n(Cc2cccc(Br)c2)nc2c(S(=O)(=O)N3CCCCC3)cccn12: 941

# next compound below
-- ask Identify measured RP-LC retention time associated with `O=C(Cn1cccc1-c1nc(-c2ccccc2)cs1)NCCCN1CCCC1`
-- reply 601

* * *

# run_description: gradient 5% acetonitrile 3 min, to 50% in 2 min, to 85% in 15 min, held 3 min, 100 µL/min
# condition_info: column: Zorbax Extend-C18 2.1 x 50 mm; eluents: water / acetonitrile, 0.1% formic acid
Label false (0) if RP-LC retention time falls below 700 s; label true (1) in every other case.

For orientation, consider the following solved cases.
* CC1CCN(Cc2csc(N3CCN(C(=O)c4ccc5c(c4)OCO5)CC3)n2)CC1 | false (0)
* CC1=NS(=O)(=O)N(Cc2ccccc2)C=C1C(=O)OCc1cccc(C)c1 | true (1)
* Cc1cc(=O)n(CC(=O)Nc2cccc(F)c2)c(N)n1 | false (0)
* O=S(=O)(Cc1ccccc1)N1CCC(c2noc(COCC3CC3)n2)CC1 | true (1)
* Cc1cc(C)n(-c2nc(CC(=O)Nc3nc(-c4ccccc4)cs3)cs2)n1 | true (1)
* Cc1cc(=O)n(CC(=O)Nc2ccccc2C)c(N2CCCC2)n1 | false (0)
* COCC(=O)NCC12CCC=C1N(C)C(=O)CC2 (stereo not given) | false (0)

Now let's try a different one.
-- ask Check if RP-LC retention time >= 700 s (inclusive). Item: `COc1ccc(-c2nc(C)cc(C)c2CNC(=O)c2ccc3c(c2)OCO3)cc1`
-- reply false (0)

* * *

// values below are reported RP-LC retention time
# run_description: gradient 5% acetonitrile 3 min, to 50% in 2 min, to 85% in 15 min, held 3 min, 100 µL/min
# condition_info: column: Zorbax Extend-C18 2.1 x 50 mm; eluents: water / acetonitrile, 0.1% formic acid
Express it in s; write the number only.

Answered examples (4):
* CN(Cc1ccoc1)C(=O)Nc1ccccc1 | 785
* Cc1ccc(CNC(=O)C2(C)Oc3cccnc3N(C)C2=O)o1 (stereo unspecified) | 740
* CC(C)NC(=O)c1ccccc1OCC1CCCN(C2CCCC2)C1 (stereo unspecified) | 635
* O=C(C1CCN(c2nnc(-c3ccccc3)o2)CC1)N1CCOCC1 | 668

Moving on to another compound below.
-- ask Determine its reported RP-LC retention time: Cc1oc(-c2ccc(Cl)cc2)nc1CN1CCCC(C(=O)NC2CCCCCC2)C1 (stereo unspecified)
-- reply 810

* * *

# run_description: gradient 5% acetonitrile 3 min, to 50% in 2 min, to 85% in 15 min, held 3 min, 100 µL/min
# condition_info: column: Zorbax Extend-C18 2.1 x 50 mm; eluents: water / acetonitrile, 0.1% formic acid
Threshold check on RP-LC retention time: strictly below 700 s is yes (1); on or above 700 s is no (0).

Answered examples (8):
• O=c1ccc(N2CCCN(S(=O)(=O)c3ccc(F)c(Cl)c3)CC2)nn1-c1ccccc1 = no (0)
• CCNc1cc(C)nc(N2CCN(C(=O)CC(C)C)CC2)n1 = yes (1)
• Cc1oc2nc3c(c(=O)n(CC(=O)OCc4ccccc4)c(=O)n3C)n2c1C = no (0)
• O=c1n(Cc2ccc(F)cc2)nc2c(S(=O)(=O)N3CCCC3)cccn12 = no (0)
• COC(=O)c1cc2c(cc1NC(=O)C1CCCN(c3ncnc4c3nc3n4CCCCC3)C1)OCO2 (centres undefined) = no (0)
• CCN(C(=O)C1CCC(C)CC1)c1nc(-c2ccc(C)cc2)cs1 (centres undefined) = no (0)
• Cc1c(-c2ccc(Cl)cc2)noc1C1CCN(CCc2ccccc2)CC1 = no (0)
• COc1cccc(OC)c1C(=O)NCCNC(=O)c1ccc(NC(=O)C2CC2)cc1 = yes (1)

-- ask API: query returns whether the molecule falls strictly under 700 s in RP-LC retention time. Query: `Cc1nc(COc2ccccc2)sc1C(=O)N1CCC(C(N)=O)CC1`
-- reply no (0)

-- ask Could you please tell me whether RP-LC retention time recorded for `CC1CCN(C(=O)CC2CCN(S(=O)(=O)c3ccc(Cl)s3)CC2)CC1` is less than 700 s?
-- reply no (0)

-- ask Regarding `Cc1nc(-c2ccc(N3CCN(C(=O)c4ccco4)CC3)nc2)sc1C` , kindly confirm whether its RP-LC retention time is beneath 700 s.
-- reply no (0)

-- ask For this molecule, is RP-LC retention time lower than 700 s? `O=C(COc1ccc(Cl)cc1)Nc1ccc(-c2nc(-c3ccc(F)cc3)no2)cc1`
-- reply no (0)

Origin of values: the METLIN SMRT retention time set (Domingo-Almenara et al. 2019)
